Molecular target: T1, TR2 orphan receptor (TR2-11, NR2C1) (Homo sapiens, UniProt P13056 SEQ:1-603)
T1 chain: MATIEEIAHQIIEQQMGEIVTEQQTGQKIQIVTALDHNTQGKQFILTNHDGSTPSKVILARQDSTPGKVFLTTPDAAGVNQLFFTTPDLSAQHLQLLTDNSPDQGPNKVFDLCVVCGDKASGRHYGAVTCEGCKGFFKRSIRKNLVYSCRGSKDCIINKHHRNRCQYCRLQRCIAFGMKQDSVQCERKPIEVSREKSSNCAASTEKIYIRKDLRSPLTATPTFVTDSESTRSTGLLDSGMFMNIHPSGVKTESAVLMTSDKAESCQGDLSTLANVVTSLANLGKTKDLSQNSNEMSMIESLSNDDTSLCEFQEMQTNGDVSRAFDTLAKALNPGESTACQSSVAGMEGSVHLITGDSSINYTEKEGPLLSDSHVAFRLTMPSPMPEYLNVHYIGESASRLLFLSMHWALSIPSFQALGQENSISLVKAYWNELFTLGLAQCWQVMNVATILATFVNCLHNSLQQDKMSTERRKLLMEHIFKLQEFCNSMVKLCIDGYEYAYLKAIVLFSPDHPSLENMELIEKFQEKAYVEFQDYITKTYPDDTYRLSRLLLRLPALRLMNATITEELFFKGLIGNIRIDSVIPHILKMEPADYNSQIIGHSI
Assay: EMSA; Scatchard; 25 mM Tris pH 8.0, 50 mM KCl, poly(dI.dC)
Details: tags: none stated, pSG5-hTR2-11, TNT rabbit reticulocyte lysate; label: 32P
QUANTITY NAME: Kd (nM)
Numbers only, in nM.

[ask] Quick check: Kd of PPRE (rat acyl-CoA oxidase) (dsDNA) DNA 1: GTCGACAGGGGACCAGGACAAAGGTCACGTTCGGGAGTCGAC DNA 2: GTCGACTCCCGAACGTGACCTTTGTCCTGGTCCCCTGTCGAC ?
[reply] 1.23

Cited source: patent US20060063727
